- Tested on: SF-539
- assay text: NCI tumour cell line growth inhibition, 48 h
Calls of active or inactive are those of the source. Rule as the data show it: active = GI50 up to about 1.1 µM and inactive = higher.
compounds and their reported GI50

Consider the worked cases shown below.
CC1CCC2C(C)C(=O)OC3OC4(C)CCC1C32OO4 (stereo not given) ... > 100 µM (inactive)
CCCN(CCCC(NC(C)=O)C(=O)NCc1ccccc1)C(=O)NC (stereo not given) ... > 100 µM (inactive)
CC(=O)CCC[C@@H](C)[C@@H]1O[C@H]([C@@]2(C)CCC(=O)O2)C[C@H]2C(CSc3ccccc3)C(=O)O[C@@H]12 (stereo not given in full) ... 14.6 µM (inactive)

Given item COc1ccccc1NC(=O)CSC(N)=O , the value recorded as its GI50 is 34 µM (inactive)

Given item CCOC(=O)C(NCc1ccccc1)(NC(=O)c1ccccc1)C(F)(F)F (stereo not given) , the value recorded as its GI50 is > 100 µM (inactive)

Given item COC(=O)C(=O)C(C(=O)C(=O)Nc1nc2ccc(C)cc2s1)c1nc2ccc([N+](=O)[O-])cc2nc1O (stereo not given) , the value recorded as its GI50 is > 100 µM (inactive)

Given item Cc1nc2c(n1Cc1ccc(F)cc1)C(=O)c1ccccc1C2=O , the value recorded as its GI50 is 6.98 µM (inactive)

Given item Cc1ccc(NC(=O)C(=O)C(C(=O)c2ccc3ccccc3c2)C2OC(=O)c3ccccc32)cc1C (stereo not given) , the value recorded as its GI50 is 3.02 µM (inactive)

Given item CC(=O)CCn1[nH]c(=O)c(Cl)c(Cl)c1=O , the value recorded as its GI50 is > 100 µM (inactive)

Given item COC1OC(=O)C(OC)C(OC)C1OC (stereo not given) , the value recorded as its GI50 is > 100 µM (inactive)

Given item O=c1c2ccccc2nc2n1-c1ccccc1SC2 , the value recorded as its GI50 is > 100 µM (inactive)
